Recorded cytotoxicity at 10 µM for the following molecules
assay: Toxicity liver stage against HepG2, at 10uM; type: cell-based; design: test concentration 10 uM, cell line HepG2-A16-CD81EGFP; conditions: human, HepG2-A16-CD81EGFP cells; read-out: INHIBITION

# molecule, cytotoxicity at 10 µM
data = [
    ("Clc1ccc2cccnc2c1CNC1CCc2ncnn2C1 (centres undefined)", "-6.53%"),
    ("O=C(NCCCSc1ccc(F)cc1)C1CCc2cn[nH]c2C1 (centres undefined)", "-3.65%"),
    ("O=C1CN(C(=O)c2cc(Cl)ccc2F)c2ccccc2N1", "79.6%"),
    ("COc1cc(C(=O)N(Cc2cccs2)C2CC2)cc2c1OCCO2", "8.45%"),
    ("O=C(c1scc2c1OCCO2)N1CCOC(Cc2ccc(F)cc2)C1 (centres undefined)", "1.73%"),
    ("O=C(c1cccc(F)c1)N1CCCC1c1ncc2c(n1)CCNC2 (centres undefined)", "-12.2%"),
    ("Cc1cc(C(=O)NCc2ccc(N3CCCC(C(N)=O)C3)cc2)[nH]n1 (centres undefined)", "4.23%"),
    ("c1cn2c(n1)CNCC(COCC1CC1)C2 (centres undefined)", "17.4%"),
    ("CCc1c(C)sc2ncnc(N3CC[C@@H](N4CCC(O)CC4)[C@H](O)C3)c12", "6.96%"),
    ("COCCNc1nc(N2CCOCC2)nc2nccnc12", "4.09%"),
    ("CCCc1cc(=O)n(CC(N)=O)c(-n2nc(C)cc2C)n1", "0.097%"),
    ("O=C(O)c1cc2c(nc1-c1ccsc1)CCN(C(=O)C1CC1)CC2", "14.4%"),
    ("Cc1cnn(C2CN(Cc3nnc(Cc4ccccc4)o3)C2)c1", "4.4%"),
    ("CC(C)CN(CC(F)(F)F)S(=O)(=O)c1cc(C(N)=O)n(C)c1", "-3.22%"),
    ("COc1ccccc1NC(=O)Cc1c(C)nc2c(c1C)c(=O)[nH]n2C", "-1.68%"),
    ("CN1CCN(CC2(O)CCCN(C(=O)Cc3cccc(O)c3)CC2)CC1 (centres undefined)", "-4.86%"),
    ("O=C(CCc1ccsc1)N1CCCCC1Cn1cccn1 (centres undefined)", "-5.78%"),
    ("c1cnc(Nc2cc(CCC3CCCNC3)ccn2)cn1 (centres undefined)", "-7.58%"),
    ("CCc1cc(N2CCN(c3cnccn3)CC2)n2nc(C)c(C)c2n1", "6.71%"),
    ("Cc1nc(CN2C(=O)CC[C@@H]3[C@H]2CCN3C(=O)c2ccc[nH]2)cs1", "-77.3%"),
    ("Fc1ccc(OCCCNC2=NCCN2)cc1", "5.08%"),
    ("O=C(c1ccc(-n2cccn2)cc1Cl)N1CCCC(O)(CO)C1 (centres undefined)", "-0.226%"),
    ("Cn1cc(S(=O)(=O)N2CCCC2Cn2ccnc2)cc1C(N)=O (centres undefined)", "2.8%"),
    ("O=C(CCN1CCCCO1)N1CCC(CO)(CCc2ccccc2)CC1", "9.71%"),
]
